- Subject Of Test: RutR AcK7 K7AcK (Escherichia coli K12?) (UniProt P0ACU2)
- Sequence (P0ACU2 whole entry): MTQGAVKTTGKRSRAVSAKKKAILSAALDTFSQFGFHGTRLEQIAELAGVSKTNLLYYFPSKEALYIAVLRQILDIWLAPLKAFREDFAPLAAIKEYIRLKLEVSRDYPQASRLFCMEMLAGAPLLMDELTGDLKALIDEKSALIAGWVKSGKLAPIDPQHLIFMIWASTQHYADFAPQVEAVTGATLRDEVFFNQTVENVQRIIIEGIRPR
- Test Protocol: SPR
- Experimental Setup: ITC: 100 mM potassium phosphate pH 6.4, 150 mM NaCl, 5 mM MgCl2, 2 mM b-ME, 20 or 25 C; SPR: 100 mM potassium phosphate pH 6.4, 300 mM NaCl, 0.05% Tween20 …
Outcome Measure: Kd (nM)
Please state the figure in nM; there is no need to write the unit.

Ask | Supply Kd value. Item: GTTTTATGTGCAACTGTTTTGACCGTTTAGTCCACTTTTTACCAGATATTTTAG (double strand) [biotin-boxrutA]
Reply | 9.06

Ref: paper PMC10891134
